Sourced from paper PMC6124754

System: H37Rv Mtb strain
assayText: H37Rv growth inhibition, resazurin reduction microplate assay (REMA)
Type: cell-based, Mycobacterium tuberculosis
measurementContext: S6 summary table
recordedMetric: Toxicity in H37Rv assay (summary)
// no unit string in output, number only

Below, 2 compounds whose answers are already recorded.
# smilesInput, experimentalTarget, Toxicity in H37Rv assay (summary)
measured = [
    ("Cc1ccc(-n2nc(C(C)(C)C)cc2Nc2nc3ccccc3nc2NCCCO)cc1", "H37Rv Mtb strain", 0),
    ("CC(C)CCNc1nc2cc3ccccc3cc2nc1NCCC(C)C", "H37Rv Mtb strain", 0),
]

What does the record list as Toxicity in H37Rv assay (summary) for Brc1c2ccccc2c(Br)c2nc(-c3ccco3)c(-c3ccco3)nc12 ? 0

* * *

System: HFF, HEK293 and A431 cell lines
Assay type: cell-based, human
measurementContext: human, 72 h
# reported Toxicity in mammalian cell lines (summary); entries follow
// no unit string in output, number only

Below, 2 compounds whose answers are already recorded.
# smilesInput, numericReadout
records = [
    ("Cc1ccc(-n2nc(C(C)(C)C)cc2Nc2nc3ccccc3nc2NCCCO)cc1", 0),
    ("Cc1ccc(C)c(SCc2nc3cc4ccccc4cc3nc2CSc2cc(C)ccc2C)c1", 0),
]

Now examine the next entry.
Please provide the recorded Toxicity in mammalian cell lines (summary) for Brc1c2ccccc2c(Br)c2nc(-c3ccco3)c(-c3ccco3)nc12 , tested on HFF, HEK293 and A431 cell lines. 0

* * *

# reported ABCG2 ATPase, concentration at Vmax; entries follow
experimentalTarget: human ABCG2 (Homo sapiens, UniProt Q9UNQ0)
Sequence (Q9UNQ0 whole entry): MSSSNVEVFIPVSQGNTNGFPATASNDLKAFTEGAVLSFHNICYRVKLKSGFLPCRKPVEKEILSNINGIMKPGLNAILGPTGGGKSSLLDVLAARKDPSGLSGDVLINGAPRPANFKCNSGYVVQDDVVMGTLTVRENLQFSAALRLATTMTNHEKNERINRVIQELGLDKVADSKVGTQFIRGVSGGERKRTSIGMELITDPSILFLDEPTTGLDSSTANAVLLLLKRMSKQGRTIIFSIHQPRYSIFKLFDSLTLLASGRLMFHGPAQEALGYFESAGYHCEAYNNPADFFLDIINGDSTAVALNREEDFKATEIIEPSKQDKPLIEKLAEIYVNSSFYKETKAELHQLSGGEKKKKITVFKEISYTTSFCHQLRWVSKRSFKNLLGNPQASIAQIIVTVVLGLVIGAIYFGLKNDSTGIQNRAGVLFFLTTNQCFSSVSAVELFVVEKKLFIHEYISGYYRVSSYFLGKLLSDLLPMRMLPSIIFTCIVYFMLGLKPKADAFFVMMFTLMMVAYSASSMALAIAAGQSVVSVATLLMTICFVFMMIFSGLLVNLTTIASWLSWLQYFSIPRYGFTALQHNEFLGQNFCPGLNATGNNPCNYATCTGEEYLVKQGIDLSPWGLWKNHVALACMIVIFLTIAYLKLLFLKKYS
assayText: Vanadate-sensitive ATPase activity assay in Sf9 membrane vesicles, ABCG2
Assay type: biochemical
Parameters: made in house; host or cells: Sf9 insect cells (baculovirus), membrane vesicles; unit not given here
measurementContext: concentration at which Vmax was seen
// no unit string in output, number only

Below, 2 molecules whose answers are already recorded.
# molecule, experimentalTarget, ABCG2 ATPase, concentration at Vmax
data = [
    ("CC(C)CCNc1nc2cc3ccccc3cc2nc1NCCC(C)C [VCC979812]", "human ABCG2 (Homo sapiens, UniProt Q9UNQ0)", 0.4),
    ("COc1ccc(/C=C/c2nc(NCCCN3CCOCC3)c3cc4ccccc4cc3n2)cc1 [VCC478498]", "human ABCG2 (Homo sapiens, UniProt Q9UNQ0)", 2),
]

Now examine the next entry.
What does the record list as ABCG2 ATPase, concentration at Vmax for Brc1c2ccccc2c(Br)c2nc(-c3ccco3)c(-c3ccco3)nc12 [VCC450327] ? 0.4
